System: UACC-62
method.summary: NCI tumour cell line growth inhibition, 48 h
Structures can show the parent of a compound that is named as a salt. The source made the active and inactive calls. Cut-off read from the data, not from the text of the source: active = GI50 up to about 1.1 µM and inactive = higher.
Pick one and only one: 1 (yes) = active, 0 (no) = inactive

**Query** Name the outcome recorded for Cc1ccc2c(C3Cc4ccccc4N3C(=O)/C=C\C(=O)O)c(C)[nH]c2c1 (configuration not stated) in the assay.
**Result** 0 (no)

**Query** Name the outcome recorded for COc1ccc(N2C(=O)C3c4[nH]c5ccc(OCc6ccccc6)cc5c4C4CCC(C(C)(C)C)CC4C3C2=O)cc1 (configuration not stated) in the assay.
**Result** 0 (no)

**Query** Name the outcome recorded for CC(=O)Nc1ccc(C(=O)NN2C(=O)CSC2c2ccc([N+](=O)[O-])cc2)cc1 (configuration not stated) in the assay.
**Result** 0 (no)

**Query** Name the outcome recorded for CCOP1(=O)C=C(Sc2ccc([N+](=O)[O-])cc2[N+](=O)[O-])C(C)(C)O1 (configuration not stated) in the assay.
**Result** 0 (no)

**Query** Name the outcome recorded for O=C(Nc1ccc(C2=NCCN2)cc1)c1cncc(C(=O)Nc2ccc(C3=NCCN3)cc2)c1 in the assay.
**Result** 0 (no)

**Query** Name the outcome recorded for COC(=O)[C@@H]1c2cc3c(c(O)c2[C@@H](OC)C[C@@]1(C)O)C(=O)c1c(O)cc2c(c1C3=O)OC1O[C@@]2(C)[C@H](O)[C@@H](N(C)C)[C@@H]1O in the assay.
**Result** 1 (yes)

**Query** Name the outcome recorded for CCc1ccc2c(c1)N(CC(C)CN(C)C)c1ccccc1S2 (configuration not stated) [ETYMEMAZINE HYDROCHLORIDE] in the assay.
**Result** 0 (no)

**Query** Name the outcome recorded for O=C1CSC2=NC3=C(CSC/C3=C\c3ccccc3)C(c3ccccc3)N12 (configuration not stated) in the assay.
**Result** 0 (no)

**Query** Name the outcome recorded for Clc1ccc(-c2cc3nc4ccccc4nc3o2)cc1 in the assay.
**Result** 0 (no)

**Query** Name the outcome recorded for COC(=O)C(CC=O)C(=O)C(=O)Nc1cccc(C(F)(F)F)c1 (configuration not stated) in the assay.
**Result** 0 (no)

**Query** Name the outcome recorded for COC(=O)c1sc2nc(Nc3ccccc3)/c(=N\c3ccccc3)sc2c1C in the assay.
**Result** 0 (no)

**Query** Name the outcome recorded for COC(=O)C1(O)c2ccccc2N=C2C1CCN2C (configuration not stated) in the assay.
**Result** 0 (no)

**Query** Name the outcome recorded for O=C(O)/C=C/c1c[nH]cn1 in the assay.
**Result** 0 (no)

**Query** Name the outcome recorded for CC1(C)CCc2c(cc3c(c2O)CCC(C)(C)O3)O1 in the assay.
**Result** 0 (no)

**Query** Name the outcome recorded for Nc1nc(Nc2ccccc2)sc1C(=O)c1cccs1 in the assay.
**Result** 0 (no)

**Query** Name the outcome recorded for COC(=O)C1=C(C)NC2(C)OC(C)(O)C(C(C)=O)C12C(C)=O (configuration not stated) in the assay.
**Result** 0 (no)

**Query** Name the outcome recorded for O=C(Nc1ccccc1)OCCN=C1c2ccccc2CCc2ccccc21 in the assay.
**Result** 0 (no)

**Query** Name the outcome recorded for Cc1ccc(NC(=O)CCc2nnc3s/c(=C\c4cccc([N+](=O)[O-])c4)c(=O)n23)cc1 in the assay.
**Result** 0 (no)

**Query** Name the outcome recorded for COc1ccc(CCN2CCc3c(C)c(C#N)c4nc5ccccc5n4c32)cc1OC in the assay.
**Result** 0 (no)

**Query** Name the outcome recorded for CCCCCCCCCCCCCC(=O)CSCCNC(=O)CCNC(=O)[C@@H](O)C(C)(C)COP(=O)(O)OP(=O)(O)OCC1OC(n2cnc3c(N)ncnc32)C(O)C1OP(=O)(O)O (some centres not stated) in the assay.
**Result** 0 (no)

**Query** Name the outcome recorded for O=C1c2ccc3c4ccc5c6c(ccc(c7ccc(c2c37)C(=O)N1CCN1CCCCC1)c64)C(=O)N(CCN1CCCCC1)C5=O in the assay.
**Result** 0 (no)

**Query** Name the outcome recorded for COc1ccc(/N=N/c2c(-c3c(OC)cc4occc4c3OC)[nH]c(=O)c(C#N)c2C)cc1 in the assay.
**Result** 0 (no)

====

Exercise: for every item that follows, state its recorded GI50.
Tested on: EKVX
method.summary: NCI tumour cell line growth inhibition, 48 h
Calls of active or inactive are those of the source. No stated cut-off is given here; in the data, active = GI50 up to about 1.1 µM and inactive = higher.

Short answer for Cc1cccc2nc3cccc(C(=O)NCCC[N+](C)(CCCNC(=O)c4cccc5nc6cccc(C)c6nc45)Cc4ccc([N+](=O)[O-])n4C)c3nc12 : GI50 was 2.1 µM (inactive)

Short answer for COc1ccccc1/N=N/c1c(O)c(S(=O)(=O)O)cc2cc(S(=O)(=O)O)ccc12 : GI50 was > 100 µM (inactive)

Short answer for CCC1CN2CCC1CC2 (stereo not given) : GI50 was > 100 µM (inactive)

Short answer for COc1ccc(/N=N/c2c(-c3c(OC)cc4occc4c3OC)[nH]c(=O)c(C#N)c2C)cc1 : GI50 was > 100 µM (inactive)

Short answer for c1ccc(C2=NN(c3nc4ccccc4s3)C3(CCCCC3)N2)nc1 : GI50 was 33.9 µM (inactive)

====

Test system: SR
method.summary: NCI tumour cell line growth inhibition, 48 h
The source made the active and inactive calls. Cut-off read from the data, not from the text of the source: active = GI50 up to about 1.1 µM and inactive = higher.
Pick one and only one: 1 (yes) for active, 0 (no) for inactive

**Query** Name the outcome recorded for CCOC(=O)C(CC#Cc1ccc(C#CCC(NC(C)=O)C(=O)OCC)cc1)NC(C)=O (centres undefined) in the assay.
**Result** 0 (no)

**Query** Name the outcome recorded for O=C1NC(Cc2ccccc2)C(=O)N2CCCC12 (centres undefined) in the assay.
**Result** 0 (no)

**Query** Name the outcome recorded for N=C(N)NCCCC(NC(=O)OCCCCn1ccc(N)nc1=O)C(=O)O (centres undefined) in the assay.
**Result** 0 (no)

**Query** Name the outcome recorded for Cc1cccc(/C(Br)=C2/OC(=O)c3ccccc32)c1 in the assay.
**Result** 0 (no)

**Query** Name the outcome recorded for O=[N+]([O-])c1cccc2nc3ccccc3c(NCCC[N+]3([O-])CCCCC3)c12 in the assay.
**Result** 1 (yes)

**Query** Name the outcome recorded for CC1CC(=O)Nc2ccc(Cl)cc2N1C(=O)CN1CCC(CCCCN(C)C)CC1 (centres undefined) in the assay.
**Result** 0 (no)

**Query** Name the outcome recorded for CC(=O)Oc1ccc2ccc(=O)oc2c1OC(C)=O in the assay.
**Result** 0 (no)

**Query** Name the outcome recorded for COc1ccc([I+]c2ccc(OC)cc2)cc1 in the assay.
**Result** 0 (no)

**Query** Name the outcome recorded for N#CC(NC12CC3CC(CC(C3)C1)C2)c1ccccc1 (centres undefined) in the assay.
**Result** 0 (no)

**Query** Name the outcome recorded for COC(=O)c1sc2nc(Nc3ccccc3)/c(=N\c3ccccc3)sc2c1C in the assay.
**Result** 0 (no)

**Query** Name the outcome recorded for Cc1cc(C(=O)N2CCN(Cc3ccccc3)CC2)c(C)o1 in the assay.
**Result** 0 (no)

**Query** Name the outcome recorded for COc1ccc(/N=N/c2c(-c3c(OC)cc4occc4c3OC)[nH]c(=O)c(C#N)c2C)cc1 in the assay.
**Result** 0 (no)

**Query** Name the outcome recorded for COc1cc(/C=C2/CCS(=O)(=O)c3ccc(C)cc3C2=O)cc(OC)c1OC in the assay.
**Result** 0 (no)

**Query** Name the outcome recorded for N#CC(/C(=N\NC(N)=S)C(=O)NC1C2CC3CC(C2)CC1C3)c1ccc(Cl)cc1 (centres undefined) in the assay.
**Result** 0 (no)

**Query** Name the outcome recorded for Cc1csc(NNC(N)=O)n1 in the assay.
**Result** 0 (no)

**Query** Name the outcome recorded for O=C1CCNC/C1=C\c1ccccc1 in the assay.
**Result** 0 (no)

**Query** Name the outcome recorded for C=C(Cl)C(Cl)(CBr)CCC(Cl)C(C)(C)Cl (centres undefined) in the assay.
**Result** 0 (no)

**Query** Name the outcome recorded for COC(=O)C1CC(OC(C)=O)C=C2C(=O)CCC21 (centres undefined) in the assay.
**Result** 0 (no)

**Query** Name the outcome recorded for Nc1ncnc2c1ncn2C1(CO)OC(CO)C(O)C1O (centres undefined) in the assay.
**Result** 0 (no)

**Query** Name the outcome recorded for O=C(/N=C1/NCC(CN2CCN(c3ccccc3)CC2)O1)Nc1ccccc1 (centres undefined) in the assay.
**Result** 0 (no)

**Query** Name the outcome recorded for COc1cc(C(C)c2cc3c(cc2OCCO)OCO3)cc(OC)c1OC (centres undefined) in the assay.
**Result** 1 (yes)

**Query** Name the outcome recorded for CC(=O)/C(C)=N/NC(=O)c1ccccc1O in the assay.
**Result** 0 (no)

**Query** Name the outcome recorded for c1ccc(Cc2nc(Cc3n[nH]c(Cc4ccccc4)n3)n[nH]2)cc1 in the assay.
**Result** 0 (no)

**Query** Name the outcome recorded for Cc1ccc(N2C(=O)CC(=O)N(NC(=O)C(C)Oc3ccccc3C)C2=S)cc1 (centres undefined) in the assay.
**Result** 0 (no)

**Query** Name the outcome recorded for CCN(CC)c1ccc(/N=N/c2ccc([N+](=O)[O-])cc2OC(=O)/C=C/c2ccccc2)c(OC(=O)/C=C/c2ccccc2)c1 in the assay.
**Result** 0 (no)

**Query** Name the outcome recorded for C(=C\c1cccc(/C=C/c2ccccn2)n1)/c1ccccn1 in the assay.
**Result** 0 (no)

**Query** Name the outcome recorded for CN1CCN(c2ncc3c(n2)sc2c(=O)n(-c4ccccc4)cnc23)CC1 in the assay.
**Result** 0 (no)

**Query** Name the outcome recorded for Cc1cc(O)c2c(c1)C(O)(c1ccc3c(c1O)C(=O)c1c(O)cc(C)cc1C3(O)C1OC(CO)C(O)C(O)C1O)c1cccc(O)c1C2=O (centres undefined) in the assay.
**Result** 0 (no)

**Query** Name the outcome recorded for C[N+]12C=CC=C1C(N1CCCC1)c1scc(-c3ccccc3)c12 (centres undefined) in the assay.
**Result** 0 (no)

**Query** Name the outcome recorded for COc1ccc(N2C(=O)C3CC4=CC(=O)C[C@H]4[C@H]32)cc1 (some centres undefined) in the assay.
**Result** 0 (no)

**Query** Name the outcome recorded for Clc1ncc(C(Cl)(Cl)Cl)nc1-c1ccccc1 in the assay.
**Result** 0 (no)

**Query** Name the outcome recorded for Cc1ccc(S(=O)(=O)OC2C(C3COC(C)(C)O3)OC3OC(C)(C)OC32)cc1 (centres undefined) in the assay.
**Result** 0 (no)

**Query** Name the outcome recorded for c1ccc2sc(SSSc3nc4ccccc4s3)nc2c1 in the assay.
**Result** 0 (no)

**Query** Name the outcome recorded for CCCN(CCC)C1CC(n2cc(C)c(=O)[nH]c2=O)OC1CO (centres undefined) in the assay.
**Result** 0 (no)
